# Test system: RRE-Rev
# TEST DESCRIPTION: microbe, parasite or virus in culture
# Type: cell-based, HIV-1
# EXPERIMENTAL CONTEXT: Human immunodeficiency virus 1, read-out: IC50 (RRE-Rev), pCMV-Rev 500 ng; pDM628 500 ng/well
ENDPOINT NAME: IC50

Enquiry: Test system RRE-Rev; read-out IC50; what value for COc1cc(CCN)c(-c2cc(C)c(-c3cc(CCN)c(O)c(CCN)c3)c(C)c2)c(CCN)c1 [IIS-420] ?
Return: 50 to 100 µM

====

# Test system: MT-2 cells
# TEST DESCRIPTION: Cellular viability (CellTiter Glo)
# Assay type: cell-based
# EXPERIMENTAL CONTEXT: 48 h, CellTiter Glo; read-out: CC50 (celular viability)
ENDPOINT NAME: CC50

Enquiry: CC50 for NC[C@@H]1O[C@H](O[C@H]2[C@@H](O)[C@H](O[C@@H]3[C@@H](O)[C@H](N)C[C@H](N)[C@H]3O[C@H]3O[C@H](CN)[C@@H](O)[C@H](O)[C@H]3N)O[C@@H]2CO)[C@H](N)[C@@H](O)[C@@H]1O [Neomycin B, neomycin B, reference compound] ?
Return: > 100 µM

====

# System: Staphilococcus aureus (ATCC 35556)
# TEST DESCRIPTION: Disk diffusion assay (Kirby-Bauer), S. aureus
# Type: cell-based
# EXPERIMENTAL CONTEXT: disk potency 20 μg, 8 mm discs, 16-18 hours at 37° C.
ENDPOINT NAME: disk susceptibility of S. aureus (diameter of the inhibition area)
Give bare numbers.

[[record]]
smiles_text = "NC[C@H]1O[C@H](O[C@H]2[C@H](O)[C@@H](O[C@H]3O[C@H](CO)[C@@H](O)[C@H](N)[C@H]3O)[C@H](N)C[C@@H]2N)[C@H](N)[C@@H](O)[C@@H]1O"
data_value = 16.7


Alright, here's another molecule for you.
Enquiry: disk susceptibility of S. aureus (diameter of the inhibition area) for NC[C@H]1O[C@H](O[C@H]2[C@H](O)[C@@H](O[C@H]3O[C@H](CO)[C@@H](O)[C@H](N)[C@H]3O)[C@H](N)C[C@@H]2N)[C@H](O)[C@@H](O)[C@@H]1O ?
Return: 16.5

====

Field: Kd(RREc)/Kd(RRE). Provide a value for each of the compounds that follow.
# TESTED ON: RREc hairpin
# TEST DESCRIPTION: SPR binding specificity relative to control RREc hairpin
# Set-up: species or system HIV-1
# EXPERIMENTAL CONTEXT: 25° C., pH 7.4

Recorded results for 2 compounds are shown here.
[[record]]
compound = "CCc1cc(-c2c(CCN)cc(OC)cc2CCN)ccc1-c1cc(CCN)c(O)c(CCN)c1 [IIS-792]"
data_value = 1.2

[[record]]
compound = "COc1cc(CCN)c(-c2ccc(-c3cc(CCN)c(OCc4ccc(C(F)(F)F)cc4)c(CCN)c3)c(OC)c2)c(CCN)c1 [IIS-478]"
data_value = 10.3


Value sought for every listed compound: Kd(RREc)/Kd(RRE).
1. CCc1cc(-c2c(CCN)cc(OC)cc2CCN)cc(CC)c1-c1cc(CCN)c(O)c(CCN)c1 [IIS-806]
2. CCc1cc(-c2c(CCN)cc(OC)cc2CCN)ccc1-c1cc(CCN)c(OCc2ccccc2)c(CCN)c1 [IIS-758]
3. CCc1cc(-c2c(CCN)cc(OC)cc2CCN)cc(CC)c1-c1cc(CCN)c(OCc2ccccc2)c(CCN)c1 [IIS-771]

Return:
1.1
1.3
1.0
